Answer each item with its documented Percent Effect.
System: Wolbachia pipientis
Test: Anti-Wolbachia Cell-Based Screen
Assay type: functional
Design: scale not given: in the data most compounds retested in dose-response had high values
Details: 5 µM
The campaign covered roughly 48,000 compounds. About 13,000 (27%) showed an effect of 50% or more. Some of the results follow.
Give bare numbers, in %.

Field: Percent Effect. Fill in for each record below.
1. COc1cccc(CN2CCC(Cc3cnc(CN(C)C)cn3)CC2)c1
2. COc1ccccc1CN1CCC(Cc2cnc(CN(C)C)cn2)CC1

Result:
1. 111.9
2. 110

Parameters: items (list). Returns: Percent Effect for each item.
1. COc1ccccc1CN(C)C(=O)c1cc(CN2CCC(O)CC2)on1
2. CC(C)NC(=O)c1cc(Br)cc(S(=O)(=O)N2CCOCC2)c1F
3. Cc1cnc(N2C[C@@H]3[C@@H](C2)OCC(=O)N3CCN(C)C)nc1.O=C(O)C(F)(F)F

Result:
1: -15.1; 2: -9.649; 3: -6.584
